Just for reference, the RNAGym collection of RNA variant scans (doi:10.1073/pnas.2313332121) is where these values come from.

B1: TPR 5TU (parent)
chain: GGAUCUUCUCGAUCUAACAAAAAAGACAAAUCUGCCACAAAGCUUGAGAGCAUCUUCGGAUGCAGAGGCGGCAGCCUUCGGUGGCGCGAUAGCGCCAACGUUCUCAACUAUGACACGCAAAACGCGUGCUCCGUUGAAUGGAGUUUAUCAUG

- Variants of: B1
- experiment-description: polymerase ribozyme fitness, log enrichment relative to wild type (log ratio); higher = more active; in vitro selection for triplet polymerase activity
Fewer inactive variants are shown than the library holds.
property: polymerase ribozyme fitness (log ratio)
Response field accepts a number only; no unit should be typed.

// worked examples, polymerase ribozyme fitness (log ratio) included
[[record]]
mutation_code = "U82G G86A A120G"
property = "polymerase ribozyme fitness (log ratio)"
measurement = -1.53

[[record]]
mutation_code = "A12U G92A"
property = "polymerase ribozyme fitness (log ratio)"
measurement = -1.81

[[record]]
mutation_code = "C38A G58C C87U"
property = "polymerase ribozyme fitness (log ratio)"
measurement = -0.072


Would you kindly share the measured polymerase ribozyme fitness (log ratio) for U56A G58C C93U U127G U145A ?
-3.83

Would you kindly share the measured polymerase ribozyme fitness (log ratio) for G50C U55A ?
-3.29

Would you kindly share the measured polymerase ribozyme fitness (log ratio) for G92U G112C ?
-2.95

Would you kindly share the measured polymerase ribozyme fitness (log ratio) for G83U A97G A142U ?
-3.29

Would you kindly share the measured polymerase ribozyme fitness (log ratio) for A39U G86A ?
-3.06

Would you kindly share the measured polymerase ribozyme fitness (log ratio) for C96G A122U A142U ?
-1.45

Would you kindly share the measured polymerase ribozyme fitness (log ratio) for A3U C85A ?
-1.48
